Assayed Target: TDO (Homo sapiens)
Assay Method Text: A172 kynurenine cell-based assay
Parameters: This assay utilised cancer cells which expressed either TDO or IDO; endogenous in cells; host or cells: A172 (human glioblastoma)
Condition Summary: A172 human glioblastoma cells, 48 hours, 500 μM L-tryptophan; read-out: A172 Kynurenine cell based assay pIC50 (converted)
# key: entry, value: IC50

O=S(=O)(C1CC1)N1CCN(c2cc(Cl)cc3[nH]ncc23)CC1 [Compound 54]; < 3.16 µM
CS(=O)(=O)N1CCN(c2cc(Cl)cc3[nH]nc(N)c23)CC1 [Compound 135]; 32.4 to 100 µM
Clc1cc(N2CCN(c3cccnc3)CC2)c2cn[nH]c2c1 [Compound 375]; < 3.16 µM
O=S(=O)(CC(F)(F)F)N1CCN(c2cccc3[nH]ncc23)CC1 [Compound 18]; 32.4 to 100 µM
CS(=O)(=O)Nc1ccc2c(c1)CCN(c1cc(Cl)cc3[nH]ncc13)C2 [Compound 342]; < 3.16 µM

// compound CN(c1cc(N2CCN(S(C)(=O)=O)C(C)(C)C2)c2cn[nH]c2c1)S(C)(=O)=O [Compound 310] , assay TDO (Homo sapiens), IC50 value: 32.4 to 100 µM

Tested on TDO (Homo sapiens): COc1cc(N2CCN(S(C)(=O)=O)CC2)c2cn[nH]c2c1 [Compound 69] . Observed IC50: 3.24 to 31.6 µM

----------
Assayed Target: TDO (Homo sapiens)
Assay Method Text: A172 kynurenine cell-based assay
Parameters: This assay utilised cancer cells which expressed either TDO or IDO; endogenous in cells; host or cells: A172 (human glioblastoma)
Condition Summary: A172 human glioblastoma cells, 48 hours, 500 μM L-tryptophan; read-out: A172 Kynurenine cell based assay pIC50 (converted)
The following compounds are shown together with reported IC50 values.

CC(=O)N1CCC(CNC(=O)c2cc(Cl)cc3[nH]ncc23)CC1 [Compound 295]; > 100 µM
CN(C)S(=O)(=O)N1CCC(c2cc(Cl)cc3[nH]ncc23)CC1 [Compound 173]; < 3.16 µM
CS(=O)(=O)N1CCN(c2cc(C(F)(F)F)cc3[nH]ncc23)CC1 [Compound 49]; < 3.16 µM
CC(=O)N1CCN(c2cc(Br)cc3[nH]ncc23)CC1 [Compound 76]; < 3.16 µM
CS(=O)(=O)N1CCC(Oc2cccc3[nH]ncc23)CC1 [Compound 52]; 3.24 to 31.6 µM
CC(=O)N1CCN(c2cc(C3CC3)cc3[nH]ncc23)CC1(C)C [Compound 126]; < 3.16 µM

Could you now look at the following compound, please?
The compound identified as COCC(=O)N1CCC(c2cc(Cl)cc3[nH]ncc23)CC1 [Compound 176] registered its IC50 at < 3.16 µM

----------
Assayed Target: TDO (Homo sapiens, UniProt P48775)
Sequence (P48775 whole entry): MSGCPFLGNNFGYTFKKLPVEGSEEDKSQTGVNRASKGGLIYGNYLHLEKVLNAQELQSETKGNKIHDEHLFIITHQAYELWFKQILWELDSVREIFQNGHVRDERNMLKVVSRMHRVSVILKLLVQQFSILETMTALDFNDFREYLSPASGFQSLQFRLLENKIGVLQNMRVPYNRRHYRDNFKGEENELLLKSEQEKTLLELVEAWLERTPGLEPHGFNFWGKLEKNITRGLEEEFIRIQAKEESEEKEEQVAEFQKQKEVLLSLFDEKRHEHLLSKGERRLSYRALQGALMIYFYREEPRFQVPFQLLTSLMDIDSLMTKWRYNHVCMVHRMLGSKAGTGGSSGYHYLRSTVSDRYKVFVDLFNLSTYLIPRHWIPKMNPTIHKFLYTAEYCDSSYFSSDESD
Assay Method Text: A172 kynurenine cell-based assay
Design: This assay utilised cancer cells which expressed either TDO or IDO; endogenous in cells; host or cells: A172 (human glioblastoma)
Condition Summary: A172 human glioblastoma cells, 48 hours, 500 μM L-tryptophan; read-out: A172 Kynurenine cell based assay pIC50 (converted)
Value Type: IC50

Record excerpt, results attached:
CC(=O)N1CCC(c2cc(Cl)cc3[nH]ncc23)CC1(C)C (stereo not shown) [Compound 400]; < 3.16 µM
CN1CCN(c2cc(Cl)cc3[nH]ncc23)CC1(C)C [Compound 164]; < 3.16 µM
COC(=O)C1CCN(c2cc(Cl)cc3[nH]ncc23)CC1 [Compound 234]; < 3.16 µM

Entry CS(=O)(=O)N1CCC(c2cc(C3CCCC3)cc3[nH]ncc23)CC1 [Compound 218] — recorded IC50 = > 100 µM

----------
Measured IC50, listed per entry.
Assayed Target: IDO (Homo sapiens, UniProt P14902)
Sequence (P14902 whole entry): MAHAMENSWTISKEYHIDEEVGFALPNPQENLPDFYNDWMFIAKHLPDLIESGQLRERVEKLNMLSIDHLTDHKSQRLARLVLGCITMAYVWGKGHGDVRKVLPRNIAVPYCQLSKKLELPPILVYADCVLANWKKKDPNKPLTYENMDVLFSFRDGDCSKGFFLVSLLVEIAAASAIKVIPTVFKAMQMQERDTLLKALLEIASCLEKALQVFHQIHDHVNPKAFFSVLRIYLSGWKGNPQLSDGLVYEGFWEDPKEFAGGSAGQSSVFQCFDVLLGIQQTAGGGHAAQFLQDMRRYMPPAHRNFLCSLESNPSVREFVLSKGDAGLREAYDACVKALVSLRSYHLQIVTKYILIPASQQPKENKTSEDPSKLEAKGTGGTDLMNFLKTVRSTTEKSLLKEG
Assay Method Text: hIDO biochemical coupled assay
Condition Summary: 45 μM L-tryptophan, 17 minutes, room temperature; read-out: hIDO biochemical assay pIC50 (converted)

CN1C(=O)[C@@H]2CC[C@H]1CN(c1cc(Br)cc3[nH]ncc13)C2 [Compound 455]; 3.24 to 31.6 µM
CN(C)C(=O)c1ccc(-c2cc(Cl)cc3[nH]ncc23)cc1 [Compound 255]; > 100 µM
CN(C1CCN(c2cc(Cl)cc3[nH]ncc23)CC1(C)C)S(C)(=O)=O (centres unmarked) [Compound 449]; 3.24 to 31.6 µM
O=C1NC2(CCN(c3cc(Cl)cc4[nH]ncc34)CC2)C(=O)N1Cc1ncco1 [Compound 407]; < 3.16 µM
CC(C)CS(=O)(=O)Nc1cccc2[nH]ncc12 [Compound 8]; > 100 µM

Entry Clc1cc(N2CCc3[nH]ncc3C2)c2cn[nH]c2c1 [Compound 328] — recorded IC50 = > 100 µM

GET /value?item= COCCS(=O)(=O)N1CCC(c2cc(Cl)cc3[nH]ncc23)CC1 [Compound 228] &field=IC50 returns 3.24 to 31.6 µM

# IC50 (compound: CNS(=O)(=O)c1ccc(-c2cc(Cl)cc3[nH]ncc23)cc1 [Compound 300] ) is 32.4 to 100 µM

IC50 recorded for this compound, NS(=O)(=O)c1ccc(-c2cc(Cl)cc3[nH]ncc23)cc1 [Compound 269] , is > 100 µM

Per the record, CC1(C)CN(c2cc(Cl)cc3[nH]ncc23)CCC1NS(C)(=O)=O (centres unmarked) [Compound 336] has IC50 of 3.24 to 31.6 µM

Reported IC50 ( CC1(C)CN(c2cc(Cl)cc3c(N)n[nH]c23)CCN1S(C)(=O)=O [Compound 321] ) = > 100 µM

----------
Assayed Target: TDO (Homo sapiens, UniProt P48775)
Assay Method Text: A172 kynurenine cell-based assay
Parameters: This assay utilised cancer cells which expressed either TDO or IDO; endogenous in cells; host or cells: A172 (human glioblastoma)
Condition Summary: A172 human glioblastoma cells, 48 hours, 500 μM L-tryptophan; read-out: A172 Kynurenine cell based assay pIC50 (converted)
Value Type: IC50

// below: answered compounds
CC(=O)N1CCC(c2cc(C(F)(F)F)cc3[nH]ncc23)CC1; < 3.16 µM
CN1CNC(=O)C12CCN(c1cc(Cl)cc3[nH]ncc13)CC2; 3.24 to 31.6 µM
CS(=O)(=O)N1CCN(c2cc(C#N)cc3[nH]ncc23)CC1; 3.24 to 31.6 µM
CC(C)COc1cccc2[nH]ncc12; > 100 µM

Bench note, TDO (Homo sapiens, UniProt P48775): entry CCC(=O)N1CCC(c2cc(Cl)cc3[nH]ncc23)CC1 , its IC50 = < 3.16 µM

Readout IC50 for CC(=O)NCCN1CCN(c2cc(Cl)cc3[nH]ncc23)CC1(C)C , test system TDO (Homo sapiens, UniProt P48775), was < 3.16 µM

Readout IC50 for O=C1NCCN1C1CCN(c2cc(Cl)cc3[nH]ncc23)CC1 , test system TDO (Homo sapiens, UniProt P48775), was < 3.16 µM

I looked up CNS(=O)(=O)N1CCN(c2cccc3[nH]ncc23)CC1 and its IC50 for TDO (Homo sapiens, UniProt P48775) was 3.24 to 31.6 µM

CC(=O)N1CCC(c2cc(C3CCCC3)cc3[nH]ncc23)CC1 tested on TDO (Homo sapiens, UniProt P48775) gave IC50: > 100 µM

Given the compound CS(=O)(=O)N1CCC(c2cc(C3CCOCC3)cc3[nH]ncc23)CC1 and test system TDO (Homo sapiens, UniProt P48775), the measured IC50 is 32.4 to 100 µM

Readout IC50 for CS(=O)(=O)N1CCN(c2cccc3c(N)noc23)CC1 , test system TDO (Homo sapiens, UniProt P48775), was > 100 µM

Form: item CC(=O)N1[C@H](C)CN(c2cc(Cl)cc3[nH]ncc23)C[C@@H]1C ; test system TDO (Homo sapiens, UniProt P48775); IC50: < 3.16 µM

So the reported IC50 for CC(=O)NC1CCN(c2cc(Cl)cc3[nH]ncc23)CC1(C)C (stereo not drawn) , on TDO (Homo sapiens, UniProt P48775), turned out to be < 3.16 µM

Here CC(=O)N1CCN(c2ccc3[nH]ncc3c2)CC1 was tested on TDO (Homo sapiens, UniProt P48775), and its IC50 came to 3.24 to 31.6 µM

The compound NS(=O)(=O)N1CC2(CCN(c3cc(Cl)cc4[nH]ncc34)CC2)C1 , tested on TDO (Homo sapiens, UniProt P48775), showed IC50 of < 3.16 µM

----------
Assayed Target: TDO (Homo sapiens, UniProt P48775)
Assay Method Text: hTDO biochemical coupled assay
Condition Summary: 330 μM L-tryptophan, 17 minutes, room temperature; read-out: hTDO biochemical assay pIC50 (converted)
Reported IC50 values are given for each entry in this list.

Known results for compounds:
O=C1NCC2(CCN(c3cc(Cl)cc4[nH]ncc34)CC2)O1; < 3.16 µM
COC(C)c1cc(Cl)cc2[nH]ncc12 (stereo not shown); 3.24 to 31.6 µM
CS(=O)(=O)N1CCN(c2cc(Cl)cc3c(N)noc23)CC1; > 100 µM
CS(=O)(=O)N1CCC(n2cc(-c3cc(Cl)cc4[nH]ncc34)cn2)CC1; < 3.16 µM
O=C1NC2(CCN(c3cc(Cl)cc4[nH]ncc34)CC2)C(=O)N1CC1CCOCC1; < 3.16 µM

Measured IC50 of Clc1cc(N2CCC(n3cccn3)CC2)c2cn[nH]c2c1 : < 3.16 µM

GET /value?item= Clc1cc(N2CCc3cn[nH]c3C2)c2cn[nH]c2c1 &field=IC50 returns < 3.16 µM

Reported IC50 of CC(=O)N1CCC2(CC1)CCN(c1cc(Cl)cc3[nH]ncc13)CC2 : < 3.16 µM

Item: O=C1Nc2ccccc2NC12CCN(c1cc(Cl)cc3[nH]ncc13)CC2 | IC50: < 3.16 µM

The value of IC50 measured for the compound CC(=O)NCC1(C)CN(c2cc(Cl)cc3[nH]ncc23)C1 turned out to be < 3.16 µM

Record O=c1[nH]c2ccccc2n1C1CCN(c2cc(Cl)cc3[nH]ncc23)CC1 , field IC50: < 3.16 µM

Measured IC50, Clc1cc(N2CCc3ccncc3C2)c2cn[nH]c2c1 : < 3.16 µM

Lab book: IC50 of CC(=O)N(C)c1cc(C2CCN(S(C)(=O)=O)CC2)c2cn[nH]c2c1 noted as > 100 µM

The compound CS(=O)(=O)N1CCC(C(O)c2cc(Cl)cc3[nH]ncc23)CC1 (stereo not shown) showed IC50 equal to < 3.16 µM

Entry CS(=O)(=O)N1C2CCC1CN(c1cc(Cl)cc3[nH]ncc13)C2 , IC50 reported as < 3.16 µM

Looking up CS(=O)(=O)NC1CN(c2cc(Cl)cc3[nH]ncc23)C1 , I found its IC50 recorded as < 3.16 µM

Measured IC50 of CC(=O)N1CCN(c2cccc3cnn(C)c23)CC1 : 32.4 to 100 µM

What the record says about OC1(c2cc(Cl)cc3[nH]ncc23)CCCCC1 : IC50 is < 3.16 µM
